Taken from patent US20120322725A1.

# IC50 annotations
- SYSTEM_TESTED: T1, glucagon receptor (UniProt P47871 26-477, limits assumed)
- T1 construct: whole, on cells; also called GR; Glucagon
- PROTOCOL_NOTES: receptor binding (named so for the same values in Table I), method not described
Ends that are not written are not given here.
Numbers only; they are read as nM.

INPUT: Output measured IC50 for this item: LTFTSEYSKYLDSRRAQDFVQWLMNT-NH2 (also called peptide no) [[Leu^4, Glu^9]Glucagon(aa4-29)-NH2]
OUTPUT: 36.4

INPUT: Specify reported IC50 for the binder shown: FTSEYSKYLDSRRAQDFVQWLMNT-NH2 (also called [E^9]Glucagon(aa6-29)-NH2; peptide no) [[Glu^9]Glucagon(aa6-29)-NH2]
OUTPUT: 36.4

INPUT: Item FTSDYSKYLDSRRAQDFVQWLMNT-NH2 (also called peptide no) [Glucagon(aa6-29)-NH2] : provide IC50
OUTPUT: 1890

INPUT: Determine its reported IC50: FTSKYSKYLDSRRAQDFVQWLMNT-NH2 (also called [K^9]Glucagon(aa6-29)-NH2; peptide no) [[Lys^9]Glucagon(aa6-29)-NH2]
OUTPUT: 5780
